Data origin: ChEMBL document CHEMBL5291721

Data export: AC50 values recorded with B2 bradykinin receptor (Homo sapiens, UniProt P30411).
Sequence (P30411 whole entry): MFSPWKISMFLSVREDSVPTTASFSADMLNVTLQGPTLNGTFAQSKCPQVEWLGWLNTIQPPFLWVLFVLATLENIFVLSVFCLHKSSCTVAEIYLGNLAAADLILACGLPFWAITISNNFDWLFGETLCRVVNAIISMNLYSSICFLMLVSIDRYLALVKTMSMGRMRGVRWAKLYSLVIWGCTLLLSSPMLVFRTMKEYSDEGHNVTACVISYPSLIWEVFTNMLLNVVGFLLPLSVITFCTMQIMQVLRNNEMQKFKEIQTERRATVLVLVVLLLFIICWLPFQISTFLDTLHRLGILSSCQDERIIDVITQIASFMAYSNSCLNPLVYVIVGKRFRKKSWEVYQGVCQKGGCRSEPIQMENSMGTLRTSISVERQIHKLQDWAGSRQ
readout: AC50

[[record]]
compound = "CC(C)NCC1CCc2cc(CO)c([N+](=O)[O-])cc2N1 (centres undefined) [OXAMNIQUINE]"
test_system = "B2 bradykinin receptor (Homo sapiens, UniProt P30411)"
readout = "AC50"
reported_measurement = "> 10 µM"

[[record]]
compound = "O=C(Nc1ccccc1)OCC(CN1CCCCC1)OC(=O)Nc1ccccc1 (centres undefined) [DIPERODON]"
test_system = "B2 bradykinin receptor (Homo sapiens, UniProt P30411)"
readout = "AC50"
reported_measurement = "> 30 µM"

[[record]]
compound = "Cc1ccc(-c2nc3ccc(C)cn3c2CC(=O)N(C)C)cc1 [ZOLPIDEM]"
test_system = "B2 bradykinin receptor (Homo sapiens, UniProt P30411)"
readout = "AC50"
reported_measurement = "> 30 µM"

[[record]]
compound = "COc1cc2c(cc1OC)C(=O)C(CC1CCN(Cc3ccccc3)CC1)C2 (centres undefined) [DONEPEZIL]"
test_system = "B2 bradykinin receptor (Homo sapiens, UniProt P30411)"
readout = "AC50"
reported_measurement = "> 30 µM"

